Test system: Human breast cancer cell line ZR-75-1
Experiment summary: Caspase cascade activation assay (N-(Ac-DEVD)-N'-ethoxycarbonyl-R110 fluorogenic substrate) in ZR-75-1 cells
Format: cell-based
Setup conditions: ZR-75-1 cells, 24 h incubation; sigmoidal dose-response; read-out: Caspase potency EC50 (nM) ZR-75-1
Observable: log10 of EC50 (log10 of the value in nM)

>  <Compound>
COc1cc(C2C(C#N)=C(N)Oc3c2ccc2nccnc32)cc(Br)c1OC (centres unmarked)

>  <Value reported>
2.01

$$$$
>  <Compound>
COc1cccc(C2C3=CC=C4N=CC=C4C3OC(N)=C2C#N)c1 (centres unmarked)

>  <Value reported>
1.42

$$$$
>  <Compound>
COc1cc(C2C(C#N)=C(N)Oc3cc(N4CCCC4)ccc32)cc(Br)c1OC (centres unmarked) [Example 66A]

>  <Value reported>
1.90

$$$$
>  <Compound>
COc1cc(C2C(C#N)=C(N)Oc3c2ccc2[nH]c(C)nc32)cc(Br)c1OC (centres unmarked)

>  <Value reported>
2.76

$$$$
>  <Compound>
COc1cccc(C2C(C#N)=C(N)Oc3c2ccc2nccnc32)c1 (centres unmarked)

>  <Value reported>
2.73

$$$$

* * *

Tested on: Human breast cancer cell line ZR-75-1
Experiment summary: Caspase cascade activation assay (N-(Ac-DEVD)-N'-ethoxycarbonyl-R110 fluorogenic substrate) in ZR-75-1 cells
Assay type: cell-based
Setup conditions: ZR-75-1 cells, 24 h incubation with compound; ratio of net RFU (T=3 h) of test compound to control
Method: Human breast cancer cell lines T-47D and ZR-75-1 were grown according to media component mixtures designated by American Type Culture Collection +10% FCS (Invitrogen Corporation), in a 5% CO2-95% humidity incubator at 37° C. […] After the 3 h incubation, the samples were read for fluorescence as above (T=3 h). The Relative Fluorescence Unit values (RFU) were used to calculate the sample readings as follows: RFU(T=3h)−Control RFU(T=0)=Net RFU(T=3h) […]

>  <Molecule>
COc1cncc(C2C3=CC=C4N=CC=C4C3OC(N)=C2C#N)c1 (stereo not drawn)

>  <Caspase activity (Ratio) ZR-75-1>
7.2

$$$$
>  <Molecule>
CCNc1ccc2c(c1)OC(N)=C(C#N)C2c1cc(Br)c(OC)c(OC)c1 (stereo not drawn)

>  <Caspase activity (Ratio) ZR-75-1>
4.1

$$$$
>  <Molecule>
COc1cc(C2C(C#N)=C(N)Oc3c2ccc(N)c3N)cc(Br)c1OC (stereo not drawn)

>  <Caspase activity (Ratio) ZR-75-1>
11.9

$$$$
>  <Molecule>
N#CC1=C(N)Oc2cc(N)ccc2C1c1cccc(F)c1 (stereo not drawn)

>  <Caspase activity (Ratio) ZR-75-1>
6.9

$$$$
>  <Molecule>
N#CC1=C(N)Oc2cc(N)ccc2C1c1cncc(Br)c1 (stereo not drawn)

>  <Caspase activity (Ratio) ZR-75-1>
3.4

$$$$
>  <Molecule>
COc1ccc2c(c1)OC(N)=C(C#N)C2c1cncc(Br)c1 (stereo not drawn)

>  <Caspase activity (Ratio) ZR-75-1>
10.4

$$$$
>  <Molecule>
COc1cc(C2C(C#N)=C(N)Oc3cc(N4CCNCC4)ccc32)cc(Br)c1OC (stereo not drawn) [Example 66B]

>  <Caspase activity (Ratio) ZR-75-1>
6.8

$$$$
>  <Molecule>
CCNc1ccc2c(c1)OC(N)=C(C#N)C2c1cccc(C#N)c1 (stereo not drawn)

>  <Caspase activity (Ratio) ZR-75-1>
6.7

$$$$
>  <Molecule>
COc1ccc2c(c1)OC(N)=C(C#N)C2c1cc(Cl)cc(Cl)c1 (stereo not drawn)

>  <Caspase activity (Ratio) ZR-75-1>
4.4

$$$$
